- measured_target: T1, HLA-A2 / homologous peptide P2RY8 complex on T2 cells (human)
- T1 construct: whole, on cells; also called T2 cells supplemented with homologous peptide P2RY8
- assay_name: flow cytometry on peptide-pulsed T2 cells, scFv 100 nM;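 also: scFv binding read as gMFI and normalized to the level of HLA/peptide complex displayed on T2 cells, with homologous 9-mer peptides used to probe specificity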
Each entry below carries its recorded standardized gMFI.
recorded_endpoint: standardized gMFI

[[record]]
binder = "NYA-2048 (scFv, also called NYA-2048 tag adduct) scFv: GQVQLVESGGGVVQPGRSLRLSCAASGFSIRSYDMHWVRQAPGKGLEWVATISYDGSQKYYADSVKGRFTISRDNSKNTLYLQMSSLRAEDTAVYHCARGSSGHYEAFDIWGQGTLVTVSSGGGGSGGGGSGGGGSQSVLTQPPSASGTPGQRVTISCSGSSSNIGNWYVSWYQQLPGTAPKLLIYDNNKRPSGVPDRFSGSKSGTSASLAISGLQSEDEADYYCGTWDSSLSAPWVFGGGTKLTVLGAAAGAGGDYKDDDDKGAAAHHHHHH"
assay_result = 0.69

[[record]]
binder = "NYA-2035 (scFv) scFv: GEVQLVESGGGVVQPGRSLTPSCSASGFSIRSYDIHWVRLAPGKGLEWVATISYDGSQKYFADSVKGRFTIFRDESENMVYLQMSGLRVEDTAVYHCARGSSGHYEAFDIWGQGTMVTVSSGGGGSGGGGSGGGGSQSVLTQPPSVSAAPGQKVTISCSGSSSNIGNWKVSWYQQLPGTAPKLLIYDNNKRPSGIPDRFSGSKSGTSATLGITGLQTGDEADYYCGTWDSSLSAPWVFGGGTKVTVLGAAAGAGGDYKDDDDKGAAAHHHHHH"
assay_result = 0.69

[[record]]
binder = "NYA-1143 (scFv) scFv: GEVQLVESGGGVVQPGRSLTPSCSASGFSIRSYDIHWVRLAPGKGLEWVATISYDGSQKYFADSVKGRFTIFRDESENMVYLQMSGLRVEDTAVYHCARGSSGHYEAFDIWGQGTMVTVSSGGGGSGGGGSGGGGSQSVLTQPPSVSAAPGQKVTISCSGSSSNIGNWYVSWYQQLPGTAPKLLIYDNNKRPSGIPDRFSGSKSGTSATLGITGLQTGDEADYYCGTWDSSLSAPWVFGGGTKVTVLGAAAGAGGDYKDDDDKGAAAHHHHHH"
assay_result = 0.69

[[record]]
binder = "NYA-2027 (scFv) scFv: GEVQLVESGGGVVQPGRSLTPSCSASGFSIRSYDIHWVRQAPGKGLEWVATISYDGSQKYFADSVKGRFTIFRDESENMVYLQMSGLRVEDTAVYHCARGSSGHYEAFDIWGQGTMVTVSSGGGGSGGGGSGGGGSQSVLTQPPSVSAAPGQKVTISCSGSSSNIGNNYVSWYQQLPGTAPKLLIYDNNKRPSGIPDRFSGSKSGTSATLGITGLQTGDEADYYCGSWDSSLSAPWVFGGGTKVTVLGAAAGAGGDYKDDDDKGAAAHHHHHH"
assay_result = 0.7

